- Substrate: MHET
- Experiment: Proxy for plastic degradation [kcat] (s⁻¹)
- Reported Conditions: pH 7.5
Property Name: Proxy for plastic degradation

unnamed (protein) MQTTVTTMLLASVALAACAGGGSTPLPLPQQQPPQQEPPPPPVPLASRAACEALKDGNGDMVWPNAATVVEVAAWRDAAPATASAAALPEHCEVSGAIAKRTGIDGYPYEIKFRLRMPAEWNGRFFMEGGSGTNGSLSAATGSIGGGQIASALSRNFATIATDGGHDNAVNDNPDALGTVAFGLDPQARLDMGYNSYDQVTQAGKAAVARFYGRAADKSYFIGHSEGGREGMMLSQRFPSHYDGIVAGAPWDSSTNFDLAAFRDRGGKMILYHGMSDAAFSALDTADYYERLGAAMPGAAGFARLFLVPGMNHFSGGPGTDRFDMLTPLVAWVERGEAPDQISAWSGTPGYFGVAARTRPLCPYPQIARYKGSGDINTEANFACAAPP = 0.06
